Assay: Proposed mechanism(s) of liver damage. [column 'MEC' in source]
Conditions: human
*1 amine or outer side, *2 acyl side, *3 side chain or, on linkers, in order; H or OH if unused. Where a SMILES comes first, the peptide text is derived from it. Bridges are numbered along the chain shown (N, C = ends). Roman numbers before positions name the chains, in order. [ ]: non-standard residue; d: D form. Actinocin(9to1) = Cc1c2oc3c(C)ccc(C(=O)[*:1])c3nc-2c(C(=O)[*:2])c(N)c1=O; NMeV = CN[C@H](C(=O)O)C(C)C; Sar = CNCC(=O)O

compound	Hepatotoxicity (mechanism)
CC[C@]1(O)C[C@H]2CN(CCc3c([nH]c4ccccc34)[C@@](C(=O)OC)(c3cc4c(cc3OC)N(C=O)[C@H]3[C@@](O)(C(=O)OC)[C@H](OC(C)=O)[C@]5(CC)C=CCN6CC[C@]43[C@@H]65)C2)C1	Dose-dependant
CC1(C)S[C@@H]2[C@H](NC(=O)C(c3ccccc3)S(=O)(=O)O)C(=O)N2[C@H]1C(=O)O (stereo partly drawn)	Allergic
Cc1c2oc3c(C)ccc(C(=O)N[C@@H]4C(=O)N[C@H](C(C)C)C(=O)N5CCC[C@H]5C(=O)N(C)CC(=O)N(C)[C@@H](C(C)C)C(=O)O[C@@H]4C)c3nc-2c(C(=O)N[C@@H]2C(=O)N[C@H](C(C)C)C(=O)N3CCC[C@H]3C(=O)N(C)CC(=O)N(C)[C@@H](C(C)C)C(=O)O[C@@H]2C)c(N)c1=O [DACTINOMYCIN] (I: T[dV]P[Sar][NMeV] / II: T[dV]P[Sar][NMeV]; ester I:1-I:C, II:1-II:C; linker I:N-II:N via Actinocin(9to1))	Dose-dependant
CN(C)CCC=C1c2ccccc2CCc2ccccc21	Allergic
